Conditions: buffer, 18 h, pH 7.4
Below, each of the compounds is paired with its reported solubility value.
Readout Label: solubility (µg/mL)

> print(dat)
                                    compound  meas.value
 1  Cc1noc(NC(=O)NC23CC4CC(CC(C4)C2)C3)c1C#N         1.2
 2       O=C(Nc1ccccn1)NC12CC3CC(CC(C3)C1)C2         1.4
 3  O=C(Nc1ncco1)NC1C2CC3CC(C2)CC1C3 (centres undefined)        14.9
 4    Cc1cc(CNC(=O)NC23CC4CC(CC(C4)C2)C3)no1           3
 5     Cn1cc(NC(=O)NC23CC4CC(CC(C4)C2)C3)cn1        41.1
 6  O=C(Nc1nnc(C2CC2)o1)NC12CC3CC(CC(C3)C1)C2        38.3
 7   CCn1nc(NC(=O)NC23CC4CC(CC(C4)C2)C3)cc1C        13.2
 8        O=C(Nc1ncco1)NC12CC3CC(CC(C3)C1)C2         4.4
 9  Cc1noc(NS(=O)(=O)c2ccc(NC(=O)NC34CC5CC(CC(C5)C3)C4)cc2)c1C        27.3
10  Cc1cc(NS(=O)(=O)c2ccc(NC(=O)NC34CC5CC(CC(C5)C3)C4)cc2)no1           2
11  Cc1ccnc(NS(=O)(=O)c2ccc(NC(=O)NC34CC5CC(CC(C5)C3)C4)cc2)n1         2.5
12    CCn1ccc(NC(=O)NC23CC4CC(CC(C4)C2)C3)n1        10.5
13  CC(C)c1nnc(NC(=O)NC23CC4CC(CC(C4)C2)C3)o1        9.54
14     Cc1cc(NC(=O)NC23CC4CC(CC(C4)C2)C3)on1         5.5
15       O=C(Nc1ccncc1)NC12CC3CC(CC(C3)C1)C2           7
16  CC(C)(C)c1cc(NC(=O)NC2C3CC4CC(C3)CC2C4)no1 (centres undefined)        22.7
17    Cc1noc(NC(=O)NC23CC4CC(CC(C4)C2)C3)c1C         5.7
18  O=C(Nc1nnc(-c2cccs2)o1)NC12CC3CC(CC(C3)C1)C2         2.2
19  CCCn1nc(NC(=O)NC2C3CC4CC(C3)CC2C4)cc1C (centres undefined)           2
20       O=C(Nc1ncccn1)NC12CC3CC(CC(C3)C1)C2         6.9
21        O=C(Nc1ccon1)NC12CC3CC(CC(C3)C1)C2        20.3
22     Cc1cc(NC(=O)NC23CC4CC(CC(C4)C2)C3)no1        25.9
23   Cc1onc(NC(=O)NC23CC4CC(CC(C4)C2)C3)c1Br         0.1
24       O=C(Nc1nccnn1)NC12CC3CC(CC(C3)C1)C2         6.8
25  COc1ccc(NS(=O)(=O)c2ccc(NC(=O)NC34CC5CC(CC(C5)C3)C4)cc2)nn1        14.1
26  O=C(Nc1nnc(C2CCC2)o1)NC12CC3CC(CC(C3)C1)C2        10.5
27  Cc1nc(NS(=O)(=O)c2ccc(NC(=O)NC34CC5CC(CC(C5)C3)C4)cc2)oc1C        27.1
28       O=C(Nc1cccnc1)NC12CC3CC(CC(C3)C1)C2         6.7
29  O=C(Nc1ccc(S(=O)(=O)Nc2ccc(Cl)nn2)cc1)NC12CC3CC(CC(C3)C1)C2        20.7
30  Cc1cc(NC(=O)NC2C3CC4CC(C3)CC2C4)no1 (centres undefined)        25.5
31     Cc1nnc(NC(=O)NC23CC4CC(CC(C4)C2)C3)o1        9.77
32       O=C(Nc1ccncn1)NC12CC3CC(CC(C3)C1)C2        15.5
33   Cc1noc(NC(=O)NC23CC4CC(CC(C4)C2)C3)c1Cl         1.5
34       O=C(Nc1ncncn1)NC12CC3CC(CC(C3)C1)C2         7.2
